System: field violet (Viola arvensis)
Experiment: Test D controlled growth environment herbicide test, pre- and postemergence
Assay type: in vivo
Condition Description: Postemergence, 31 g ai/ha; scale 0 to 100 (0 no effect, 100 complete control)
The label depends only on Field Violet plant response rating: 1 (yes) if it is at least 80, 0 (no) if it is smaller.

# Smiles Entry, Assigned Label
rows = [
    ("CCOC(=O)Oc1c(C)nn(C)c(=O)c1-c1c(C)sc2ccc(C)cc12", "1 (yes)"),
    ("CC(=O)Oc1c(C)nn(C)c(=O)c1-c1ccc(F)c2ccccc12", "1 (yes)"),
    ("Cc1cc(C)c2sc(C)c(-c3c(OC(=O)OCCCl)c(C)nn(C)c3=O)c2c1", "0 (no)"),
    ("Cc1nn(C)c(=O)c(-c2c(C)sc3ccc(Cl)cc23)c1O", "1 (yes)"),
    ("CC(=O)Oc1c(C)nn(C)c(=O)c1-c1c(C)cc(C)c2ccccc12", "1 (yes)"),
    ("COC(=O)Oc1c(C)nn(C)c(=O)c1-c1c(C)sc2c(C)cc(C)cc12", "0 (no)"),
    ("CC(=O)Oc1c(C)nn(C)c(=O)c1-c1c(C)sc2ccc(C)cc12", "0 (no)"),
    ("Cc1ccc2sc(C)c(-c3c(O)c(C)nn(C)c3=O)c2c1", "1 (yes)"),
]

---

System: Russian thistle (Salsola kali)
Experiment: Test D controlled growth environment herbicide test, pre- and postemergence
Format: in vivo
Condition Description: Preemergence, 62 g ai/ha; scale 0 to 100 (0 no effect, 100 complete control)
Excerpt: […]

# Smiles Entry, Plant response rating, Russian Thistle
measured = [
    ("CCOC(=O)Oc1c(C)nn(C)c(=O)c1-c1c(C)ccc2ccccc12", 25),
    ("CC(=O)Oc1c(C)nn(C)c(=O)c1-c1c(C)sc2ccc(C)cc12", 25),
    ("Cc1ccc2ccc(C)c(-c3c(O)c(C)nn(C)c3=O)c2c1", 20),
    ("COc1nn(C)c(=O)c(-c2c(C)ccc3ccccc23)c1O", 0),
]

---

Reported Plant response rating, Blackgrass values are given for each entry in this list.
Tested on: blackgrass (Alopecurus myosuroides)
Experiment: Test C greenhouse herbicide test, pre- and postemergence
Format: in vivo
Condition Description: Postemergence, 125 g ai/ha; scale 0 to 100, 0 is no effect, 100 is complete control

# Molecule, Plant response rating, Blackgrass
records = [
    ("CCOC(=O)Oc1c(C)nn(C)c(=O)c1-c1c(CC)ccc2ccccc12 [Compound 37]", 80),
    ("CCOC(=O)Oc1c(C)nn(C)c(=O)c1-c1c(C)sc2c(C)cc(C)cc12 [Compound 83]", 90),
    ("CCCC(=O)Oc1c(C)nn(C)c(=O)c1-c1c(C)sc2c(C)cc(C)cc12 [Compound 106]", 60),
    ("Cc1ccc2sc(C)c(-c3c(O)c(C)nn(C)c3=O)c2c1 [Compound 1]", 60),
    ("CCC(=O)Oc1c(C)nn(C)c(=O)c1-c1c(C)sc2ccc(C)cc12 [Compound 42]", 60),
    ("Cc1nn(C)c(=O)c(-c2c(C)sc3ccccc23)c1O [Compound 65]", 10),
    ("Cc1ccc(-c2c(O)c(Br)nn(C)c2=O)c2ccccc12 [Compound 52]", 30),
    ("CCC(=O)Oc1c(C)nn(C)c(=O)c1-c1c(C)sc2ccc(Cl)cc12 [Compound 109]", 50),
    ("COc1nn(C)c(=O)c(-c2c(C)ccc3ccccc23)c1OC(=O)OC(C)C [Compound 36]", 5),
    ("CC(=O)Oc1c(C#N)nn(C)c(=O)c1-c1c(C)ccc2ccccc12 [Compound 98]", 50),
]

---

System: barnyardgrass (Echinochloa crus-galli)
Experiment: Test A greenhouse herbicide test, pre- and postemergence
Type: in vivo
Condition Description: Postemergence, 125 g ai/ha; 0 to 100 scale, 0 no effect, 100 complete control
Reported Property: Plant response rating, Barnyardgrass

# Compound, Data Value
records = [
    ("Cc1nn(C)c(=O)c(-c2ccc(Cl)c3ccccc23)c1OP(C)(C)=O [Compound 187]", 30),
    ("CC(=O)Oc1c(C)nn(C)c(=O)c1-c1c([N+](=O)[O-])ccc2ccccc12 [Compound 164]", 20),
    ("Cc1ccc2sc(C)c(-c3c(OCC#N)c(C)nn(C)c3=O)c2c1 [Compound 160]", 10),
    ("Cc1cc(C)c2sc(C)c(-c3c(OCC#N)c(C)nn(C)c3=O)c2c1 [Compound 188]", 10),
    ("Cc1ccc2ccccc2c1-c1c(OS(C)(=O)=O)c(Br)nn(C)c1=O [Compound 155]", 30),
    ("Cc1nn(C)c(=O)c(-c2c([N+](=O)[O-])ccc3ccccc23)c1OC(=O)C(C)(C)C [Compound 163]", 0),
    ("Cc1n[nH]c(=O)c(-c2cccc3ccccc23)c1O [Compound 169]", 0),
    ("Cc1nn(C)c(=O)c(-c2ccc(Cl)c3ccccc23)c1OS(=O)(=O)N(C)C [Compound 185]", 10),
]

---

Reported Plant response rating, Pigweed values are given for each entry in this list.
Tested on: pigweed (Amaranthus retroflexus)
Experiment: Test A greenhouse herbicide test, pre- and postemergence
Type: in vivo
Condition Description: Preemergence, 500 g ai/ha; 0 to 100 scale where 0 is no effect and 100 is complete control
Reported Property: Plant response rating, Pigweed

# Smiles Entry, Data Value
rows = [
    ("COC(=O)Oc1c(C)nn(C)c(=O)c1-c1c([N+](=O)[O-])ccc2ccccc12", 90),
    ("CSCC(=O)Oc1c(C)nn(C)c(=O)c1-c1cccc2ccccc12", 100),
    ("Cc1ccc2ccccc2c1-c1c(OC(=O)N2CCOCC2)c(Br)nn(C)c1=O", 90),
    ("CC(=O)Oc1c(C)nn(C)c(=O)c1-c1ccc(F)c2ccccc12", 100),
    ("CC(=O)Oc1c(Br)nn(C)c(=O)c1-c1c(C)ccc2ccccc12", 100),
    ("Cc1cc(C)c2sc(C)c(-c3c(OC(=O)OCCCl)c(C)nn(C)c3=O)c2c1", 100),
    ("Cc1ccc2ccccc2c1-c1c(O)c(Cl)nn(C)c1=O", 100),
    ("Cc1ccc2ccccc2c1-c1c(OC(=O)C2CC2)c(C)nn(C)c1=O", 50),
    ("Cc1nn(C)c(=O)c(-c2c(C)sc3ccccc23)c1OC(=O)N1CCOCC1", 100),
    ("CC(=O)Oc1c(C)nn(C)c(=O)c1-c1ccc(Cl)c2ccccc12", 100),
    ("Cc1cc(C)c2ccccc2c1-c1c(OS(C)(=O)=O)c(C)nn(C)c1=O", 100),
]

---

System: foxtail, green (green foxtail, Setaria viridis)
Experiment: Test D controlled growth environment herbicide test, pre- and postemergence
Assay type: in vivo
Condition Description: postemergence, 62 g ai/ha; scale 0 to 100, 0 no effect, 100 complete control
The label depends only on Plant response rating, Foxtail, Green: rule met if it is at least 60, rule not met if it is smaller.

# Smiles Entry, Assigned Label
records = [
    ("CC(=O)Oc1c(Br)nn(C)c(=O)c1-c1c(C)ccc2ccccc12", "rule met"),
    ("Cc1ccc2ccc(C)c(-c3c(O)c(C)nn(C)c3=O)c2c1", "rule not met"),
    ("CCC(=O)Oc1c(C)nn(C)c(=O)c1-c1c(C)sc2ccc(Cl)cc12", "rule met"),
    ("Cc1ccc2ccccc2c1-c1c(O)c(C)nn(C)c1=O", "rule met"),
    ("COc1nn(C)c(=O)c(-c2c(C)ccc3ccccc23)c1OC(=O)OC(C)C", "rule not met"),
    ("CC(=O)Oc1c(C)nn(C)c(=O)c1-c1c(C)cc(C)c2ccccc12", "rule met"),
    ("CCC(=O)Oc1c(C)nn(C)c(=O)c1-c1c(C)sc2c(C)cc(C)cc12", "rule met"),
    ("CCC(=O)Oc1c(C)nn(C)c(=O)c1-c1c(C)sc2ccc(C)cc12", "rule not met"),
    ("COc1nn(C)c(=O)c(-c2c(C)ccc3ccccc23)c1O", "rule met"),
    ("CCOC(=O)Oc1c(C)nn(C)c(=O)c1-c1c(C)ccc2ccccc12", "rule met"),
    ("CC(=O)Oc1c(C)nn(C)c(=O)c1-c1c(C)sc2ccc(C)cc12", "rule met"),
]

---

Tested on: pigweed (Amaranthus retroflexus)
Experiment: Test C greenhouse herbicide test, pre- and postemergence
Format: in vivo
Condition Description: Postemergence, 62 g ai/ha; 0 to 100 scale (0 no effect, 100 complete control)
Reported Pigweed plant response rating values are given for each entry in this list.

# Smiles Entry, Pigweed plant response rating
rows = [
    ("CC(=O)Oc1c(C)nn(C)c(=O)c1-c1c([N+](=O)[O-])ccc2ccccc12", 80),
    ("CC(=O)Oc1c(C)nn(C)c(=O)c1-c1c(C)cc(C)c2ccccc12", 75),
    ("COC(=O)Oc1c(C)nn(C)c(=O)c1-c1c([N+](=O)[O-])ccc2ccccc12", 80),
    ("Cc1ccc2ccccc2c1-c1c(OC(=O)N2CCOCC2)c(Br)nn(C)c1=O", 30),
    ("Cc1cc(C)c2ccccc2c1-c1c(OS(C)(=O)=O)c(C)nn(C)c1=O", 85),
    ("CC(=O)Oc1c(Br)nn(C)c(=O)c1-c1c(C)ccc2ccccc12", 95),
    ("Cc1nn(C)c(=O)c(-c2cccc3ccc(C#N)cc23)c1O", 85),
]
